- Test system: LOX IMVI melanoma
- protocol_details: NCI-60 one-dose screen, 48 h (100 = growth as untreated, 0 = no growth, -100 = all killed)
- conditions_used: 10 µM
The panel holds about 83,000 compounds, 20% with a hit somewhere; the sample as a whole holds those more often.
observable: growth (%)

> print(dat)
                         chemical.structure  reported
1  Cc1ccc(CSc2nc(Cl)c(C#N)c(-c3ccc(F)cc3)n2)cc1      85.8
2  CCCSc1nc(NC2CC2)c(C#N)c(-c2ccc(OC)cc2)n1      93.9
3  COc1cc(/C=C/C(=O)c2ccc(NC(=O)CSc3nnc(-c4c[nH]c5ccccc45)n3-c3ccccc3)cc2)cc(OC)c1OC      4.61
4  CN1CCN(c2ccc(C(=O)/C=C/c3ccc(OC(F)F)cc3)cc2)CC1      -100
5  S=c1nc(-c2ccccc2)cc(-c2cc3ccccc3nc2Cl)[nH]1      44.9
6  OCCCNc1oc(-c2ccccc2)nc1[P+](c1ccccc1)(c1ccccc1)c1ccccc1     -16.6
7  CN1CCN(c2ccc(C(=O)/C=C/c3cc(C(F)(F)F)ccc3Cl)cc2)CC1      -100
8  O=C(/C=C/Nc1ccccc1)c1ccc2c(c1)Nc1ccccc1S2      79.9
9  CCOC(=O)CNC(=O)CN(Cc1ccccc1)C(=O)[C@@]1(C)CCC[C@]2(C)[C@H]3C[C@H]4C(C(C)C)=C[C@]3(CC[C@H]21)[C@@H]1C(=O)OC(=O)[C@@H]14        24

====

- System: NCI-H226 lung
- protocol_details: NCI-60 one-dose screen, 48 h
- conditions_used: 10 µM
The panel holds about 83,000 compounds, 20% with a hit somewhere; the sample as a whole holds those more often. Activity calls are given as the source filed them. Rule for the calls: active = growth percent below 10; inactive = the rest.
Outcome codes: true = active, false = inactive

> print(dat)
                                   molecule  target.system  label.value
1  CNC(=O)c1cccc(N2CCc3c2ccc(NC(=O)Nc2ccc(N4CCN(C)CC4)c(C(F)(F)F)c2)c3F)c1  NCI-H226 lung        false
2  CC(=O)c1ccc(Nc2nc(SC(C)C)nc(-c3ccccc3)c2C#N)cc1  NCI-H226 lung         true
3  O=C(Nc1ccc(Cl)c(C(F)(F)F)c1)c1cncc(C#Cc2cnc3ccc(N4CCOCC4)nn23)c1  NCI-H226 lung         true
4  CC(=O)Oc1ccccc1C(=O)Oc1ccc(C(=O)/C=C/c2ccncc2)cc1  NCI-H226 lung        false
5    COc1ccc2[nH]c(=O)c(CSc3cccc(N)c3)cc2c1  NCI-H226 lung        false
6  N#Cc1ccc(-c2nn(-c3ccc(C(=O)O)cc3)cc2CNc2cc(Cl)cc(C(F)(F)F)c2)cc1  NCI-H226 lung         true
7  O=C(c1ccc(O)cc1)C1[C@H](c2ccc(Br)cc2)[C@@H](c2ccccc2)NC12C(=O)Nc1ccccc12 (some centres undefined)  NCI-H226 lung        false
8  S=c1nc(-c2ccccc2)cc(-c2cc3ccccc3nc2Cl)[nH]1  NCI-H226 lung        false
9  O=C(Nc1ccc(Cl)c([N+](=O)[O-])c1)Nc1ccc(Cl)c([N+](=O)[O-])c1  NCI-H226 lung         true
